Catalogue of area under dose-response curve values
- Tested on: myeloid leukemia patient primary cells Pat.7
- Protocol: area under dose-response curve (viability, 1 nM-10 uM) (fraction (0-1)); higher = more sensitive
- Settings: 72 h
I'd appreciate a reply containing only the number, no unit.

Known results for molecules:
>  <Molecule>
O=C1c2cc([N+](=O)[O-])ccc2-n2c1nc1ccccc1c2=O [GNF-Pf-3777]

>  <Experimental target>
myeloid leukemia patient primary cells Pat.7

>  <area under dose-response curve>
0.0749

$$$$
>  <Molecule>
Nc1nc(Cl)nc2c1ncn2[C@H]1C[C@H](O)[C@@H](CO)O1 [Cladribine]

>  <Experimental target>
myeloid leukemia patient primary cells Pat.7

>  <area under dose-response curve>
0.62

$$$$
>  <Molecule>
C[C@H](NC(=O)c1sccc1OCc1ccc(Cl)cc1)c1ccccc1

>  <Experimental target>
myeloid leukemia patient primary cells Pat.7

>  <area under dose-response curve>
0.253

$$$$
>  <Molecule>
O=C1O/C(=C/Br)CCC1c1cccc2ccccc12 (stereo unspecified) [Bromoenol Lactone]

>  <Experimental target>
myeloid leukemia patient primary cells Pat.7

>  <area under dose-response curve>
0.287

$$$$

Task: Determine its reported area under dose-response curve: COC(=O)[C@]12CCC(C)(C)C[C@H]1[C@H]1C(=O)C=C3[C@@]4(C)C=C(C#N)C(=O)C(C)(C)[C@@H]4CC[C@@]3(C)[C@]1(C)CC2 [Bardoxolone methyl]
Output: 0.705

* * *

Catalogue of cell viability values
- System: KU-812
- Protocol: cell viability (% survival relative to DMSO control, bortezomib = 0%); higher = less cytotoxic
- Settings: 1 nM; 72 h
Kindly provide the numeric value in % only, without the unit symbol.

>  <Molecule>
CCCCN1C[C@H](O)[C@@H](O)[C@H](O)[C@H]1CO

>  <Readout units>
%

>  <cell viability>
87.9

$$$$
>  <Molecule>
CC(C)c1nc(CN(C)C(=O)N[C@H](C(=O)N[C@@H](Cc2ccccc2)C[C@H](O)[C@H](Cc2ccccc2)NC(=O)OCc2cncs2)C(C)C)cs1

>  <Readout units>
%

>  <cell viability>
109

$$$$
>  <Molecule>
N#CC(C#N)=NNc1ccc(OC(F)(F)F)cc1

>  <Readout units>
%

>  <cell viability>
108

$$$$
>  <Molecule>
N#Cc1ccnc(N2C(=O)CC[C@H]2C(=O)N(c2cncc(F)c2)C(C(=O)NC2CC(F)(F)C2)c2ccccc2Cl)c1 (some centres not stated)

>  <Readout units>
%

>  <cell viability>
92.7

$$$$

Task: Report value: cell viability, system: KU-812, molecule: CC(C)(C#N)c1cc(Cn2cncn2)cc(C(C)(C)C#N)c1
Output: 86.1

Task: Report value: cell viability, system: KU-812, molecule: CN(C)C(=O)[C@H](O)[C@H](Cc1ccccc1)NC(=O)c1cc2cc(Cl)ccc2[nH]1
Output: 98.1

* * *

Catalogue of cell viability values
- Test system: KU-812
- Protocol: cell viability (% survival relative to DMSO control, bortezomib = 0%); higher = less cytotoxic
- Settings: 10 nM; 72 h
Structures can show the parent of a compound that is named as a salt.
Kindly provide the numeric value in % only, without the unit symbol.

Known results for molecules:
>  <Molecule>
CCOC(=O)c1ccc(-c2ccc(OC(=O)N(C)Cc3cccc(-c4ccncc4)c3)cc2)cc1

>  <cell viability / %>
100

$$$$
>  <Molecule>
Oc1ccc(Nc2nc(-c3ccc(Cl)cc3)cs2)cc1

>  <cell viability / %>
101

$$$$
>  <Molecule>
CC(C)c1cc2c(c(O)c1O)[C@@]1(C(=O)O)CCCC(C)(C)[C@@H]1CC2

>  <cell viability / %>
100

$$$$
>  <Molecule>
Cc1cc(CS(=O)(=O)c2ccccc2)cc(OCc2ccc(CN3CCC[C@@H]3CO)cc2)c1 [PF-543 hydrochloride]

>  <cell viability / %>
91.6

$$$$
>  <Molecule>
COc1ccc(CNC(=O)Nc2ncc([N+](=O)[O-])s2)cc1

>  <cell viability / %>
107

$$$$
>  <Molecule>
O=C1O[C@H]([C@@H](O)CO)C(O)=C1O [Vitamin C (ascorbate)]

>  <cell viability / %>
104

$$$$
>  <Molecule>
CCN(CC)CCCC(C)Nc1ccnc2cc(Cl)ccc12 (configuration not stated)

>  <cell viability / %>
97.8

$$$$
>  <Molecule>
O=C(C1CC1)N1CC[C@@H](C=C2NNC(=O)N2c2ccc(-c3ccc4occc4c3)cc2)C1

>  <cell viability / %>
94.8

$$$$
>  <Molecule>
C=C(C)[C@H]1Cc2c(ccc3c2O[C@@H]2COc4cc(OC)c(OC)cc4[C@@H]2C3=O)O1

>  <cell viability / %>
65.9

$$$$
>  <Molecule>
CCCc1cc(-c2nc(-c3ccc(C)cc3)cs2)ccn1

>  <cell viability / %>
101

$$$$

Task: Determine its reported cell viability: O=C(O)Cn1nnc(-c2cc(N3CCC(Oc4cc(F)ccc4Br)CC3)no2)n1
Output: 107

Task: Determine its reported cell viability: CC(C)c1nc(CN(C)C(=O)N[C@H](C(=O)N[C@@H](Cc2ccccc2)C[C@H](O)[C@H](Cc2ccccc2)NC(=O)OCc2cncs2)C(C)C)cs1
Output: 95.1

* * *

- Tested on: K-562
- Protocol: cell viability (% survival relative to DMSO control, bortezomib = 0%); higher = less cytotoxic
- Settings: 10 nM; 72 h
Rule for this label: 1 (yes) means cell viability is less than 90%; 0 (no) means cell viability is at least 90%.

See these solved cases before continuing.
>  <Molecule>
O=C(O)c1cc(Cl)cc(Cl)c1O [3,5-Dichlorosalicylic Acid]

>  <Class name>
0 (no)

$$$$
>  <Molecule>
O=C1O[C@H]([C@@H](O)CO)C(O)=C1O [Vitamin C (ascorbate)]

>  <Class name>
0 (no)

$$$$
>  <Molecule>
O=C(C1CC1)N1CC[C@@H](C=C2NNC(=O)N2c2ccc(-c3ccc4occc4c3)cc2)C1

>  <Class name>
1 (yes)

$$$$
>  <Molecule>
NCCCC(N)(C(=O)O)C(F)F (stereo not drawn) [Difluoromethylornithine]

>  <Class name>
0 (no)

$$$$
>  <Molecule>
Cl.NC(CCC(=O)Nc1ccc([N+](=O)[O-])cc1)C(=O)O (stereo not drawn) [GPNA]

>  <Class name>
0 (no)

$$$$
>  <Molecule>
CCC(=O)N1CCN(c2ccc(-n3c(=O)ccc4cnc5ccc(-c6cnc7ccccc7c6)cc5c43)cc2C(F)(F)F)CC1 [Torin1]

>  <Class name>
1 (yes)

$$$$

Pending molecule:
Task: hey, is cell viability for CC(C)c1nc(CN(C)C(=O)N[C@H](C(=O)N[C@@H](Cc2ccccc2)C[C@H](O)[C@H](Cc2ccccc2)NC(=O)OCc2cncs2)C(C)C)cs1 [Ritonavir] lower than 90% or not?
Output: 0 (no)

* * *

Catalogue of cell viability values
- System: myeloid leukemia patient primary cells Pat.1
- Protocol: cell viability (% survival relative to DMSO control); higher = less cytotoxic
- Settings: 100 nM; 72 h
Kindly provide the numeric value in % only, without the unit symbol.

Known results for compounds:
>  <Compound>
CC[C@@]1(O)C(=O)OCc2c1cc1n(c2=O)Cc2cc3c(CN(C)C)c(O)ccc3nc2-1 [Topotecan]

>  <Experimental target>
myeloid leukemia patient primary cells Pat.1

>  <cell viability (%)>
98.6

$$$$
>  <Compound>
C[C@H](NC(=O)c1sccc1OCc1ccc(Cl)cc1)c1ccccc1

>  <Experimental target>
myeloid leukemia patient primary cells Pat.1

>  <cell viability (%)>
91

$$$$

Consider the record given below.
Task: Determine its reported cell viability: O=C1O/C(=C/Br)CCC1c1cccc2ccccc12 (stereo not given) [Bromoenol Lactone]
Output: 79.3

* * *

- Test system: MV4-11
- Protocol: cell viability (% survival relative to DMSO control, bortezomib = 0%); higher = less cytotoxic
- Settings: 100 nM; 72 h
Readout: cell viability (%)
Kindly provide the numeric value in % only, without the unit symbol.

Task: Determine its reported cell viability: O=C(O)C1=CC(=C(c2ccc(O)c(C(=O)O)c2)c2ccc(O)c(C(=O)O)c2)C=CC1=O [Aurintricarboxylic acid]
Output: 86.3

Task: Determine its reported cell viability: N/C(=N\CCCC(N)C(=O)O)N[N+](=O)[O-] [L-NNA]
Output: 106

Task: Determine its reported cell viability: CN(C)c1cc(NC(=O)CNC(C)(C)C)c(O)c2c1C[C@H]1C[C@H]3[C@H](N(C)C)C(=O)C(C(N)=O)C(=O)[C@@]3(O)C(=O)C1C2=O (some centres undefined) [Tigecycline]
Output: 101

Task: Determine its reported cell viability: N#Cc1ccnc(N2C(=O)CC[C@H]2C(=O)N(c2cncc(F)c2)C(C(=O)NC2CC(F)(F)C2)c2ccccc2Cl)c1 (some centres undefined) [Ivosidenib]
Output: 107

* * *

- System: THP-1
- Protocol: cell viability (% survival relative to DMSO control, bortezomib = 0%); higher = less cytotoxic
- Settings: 1 nM; 72 h
Catalogue of cell viability values
Kindly provide the numeric value in % only, without the unit symbol.

>  <Compound>
COc1cc(/C=C/C(=O)N2CCC=CC2=O)cc(OC)c1OC

>  <Experimental target>
THP-1

>  <cell viability, %>
103

$$$$
>  <Compound>
Cc1coc2c1C(=O)C(=O)c1c-2ccc2c1CCCC2(C)C

>  <Experimental target>
THP-1

>  <cell viability, %>
98.4

$$$$
>  <Compound>
CC[C@@]1(O)C(=O)OCc2c1cc1n(c2=O)Cc2cc3c(CN(C)C)c(O)ccc3nc2-1

>  <Experimental target>
THP-1

>  <cell viability, %>
98.8

$$$$
>  <Compound>
CCC(=O)N1CCN(c2ccc(-n3c(=O)ccc4cnc5ccc(-c6cnc7ccccc7c6)cc5c43)cc2C(F)(F)F)CC1

>  <Experimental target>
THP-1

>  <cell viability, %>
104

$$$$
>  <Compound>
Cl.NC(CCC(=O)Nc1ccc([N+](=O)[O-])cc1)C(=O)O (stereo not given)

>  <Experimental target>
THP-1

>  <cell viability, %>
106

$$$$
>  <Compound>
CCCCC/C=C\C/C=C\C/C=C\C/C=C\CCCCN1C(=O)C=CC1=O [N-Arachidonylmaleimide]

>  <Experimental target>
THP-1

>  <cell viability, %>
102

$$$$

Task: Report value: cell viability, system: THP-1, compound: CC1(C)[C@@H](O[C@H]2O[C@H](C(=O)O)[C@@H](O)[C@H](O)[C@H]2O[C@@H]2O[C@H](C(=O)O)[C@@H](O)[C@H](O)[C@H]2O)CC[C@]2(C)[C@H]3C(=O)C=C4[C@@H]5C[C@@](C)(C(=O)O)CC[C@]5(C)CC[C@@]4(C)[C@]3(C)CC[C@@H]12
Output: 92.1

Task: Report value: cell viability, system: THP-1, compound: N#Cc1ccnc(N2C(=O)CC[C@H]2C(=O)N(c2cncc(F)c2)C(C(=O)NC2CC(F)(F)C2)c2ccccc2Cl)c1 (stereo not given in full)
Output: 103

Task: Report value: cell viability, system: THP-1, compound: CC(C)c1nc(CN(C)C(=O)N[C@H](C(=O)N[C@@H](Cc2ccccc2)C[C@H](O)[C@H](Cc2ccccc2)NC(=O)OCc2cncs2)C(C)C)cs1
Output: 97.1

Task: Report value: cell viability, system: THP-1, compound: COc1ccc(CNC(=O)Nc2ncc([N+](=O)[O-])s2)cc1
Output: 101

Task: Report value: cell viability, system: THP-1, compound: COc1ccc2c(C(=S)N(C)CC(=O)O)cccc2c1C(F)(F)F
Output: 93.9

Task: Report value: cell viability, system: THP-1, compound: O=C1c2cc([N+](=O)[O-])ccc2-n2c1nc1ccccc1c2=O
Output: 103

Task: Report value: cell viability, system: THP-1, compound: O=c1oc2c(O)c(O)cc3c(=O)oc4c(O)c(O)cc1c4c23
Output: 102
